Documented AC50 viability across a set of compounds
- Tested on: CU-ACC1
- Test details: AC50 viability; higher = less potent
- Assay conditions: 48 h
Recorded metric: AC50 viability

> print(dat)
                         chemical.structure  recorded.metric  reported.result
1  O=C1[C@H](Cc2ccc(O)cc2)N2C(=O)CCN(C(=O)NCc3ccccc3)[C@H]2CN1Cc1cccc2ccccc12   AC50 viability          11.8 µM
2  COC1=CC2=C(C=C1CC3=C(F)C(=CC=C3)Cl)C(=O)\C(=C/N2[C@H](CO)C(C)C)C(O)=O   AC50 viability          16.6 µM
3  CC(=O)c1ccc2c(c1)c1cc(C(C)=O)ccc1n2CCNC(C)C   AC50 viability          2.09 µM
4  Nc1ncnc2c1c(-c1cnc3[nH]ccc3c1)nn2C1CCCC1   AC50 viability           5.9 µM
5  CNC(=O)c1ccccc1Nc1nc(Nc2ccc(N3CCOCC3)cc2OC)ncc1Cl   AC50 viability          16.6 µM
6  c1cc(-c2cnn3cc(-c4ccc(OCCN5CCCCC5)cc4)cnc23)ccn1   AC50 viability          11.8 µM
7  Cn1cc(-c2cnn3c(N)c(Br)c([C@@H]4CCCNC4)nc23)cn1   AC50 viability          20.9 µM
8  COc1cc2c(Oc3ccc(NC(=O)C4(C(=O)Nc5ccc(F)cc5)CC4)cc3F)ccnc2cc1OCCCN1CCOCC1   AC50 viability          10.5 µM

* * *

- Test system: CU-ACC2
- Test details: area under concentration-response curve (viability) (AUC (a.u.)); higher = less active
- Assay conditions: 48 h
Documented area under concentration-response curve across a set of compounds
Recorded metric: area under concentration-response curve

> print(dat)
                         chemical.structure  reported.result
1  CC1=C(/C=C/C(C)=C/C=C/C(C)=C\C(=O)O)C(C)(C)CCC1              586
2  C/C(=C\c1csc(C)n1)[C@@H]1C[C@@H]2O[C@@H]2CCC[C@H](C)[C@H](O)[C@@H](C)C(=O)C(C)(C)[C@@H](O)CC(=O)O1              569
3  CCC1=C2CN3C(=O)\C4=C(/C=C3/C2=NC5=CC=C(O)C=C15)[C@@](O)(CC)C(=O)OC4              447
4                           N[C@@H]1CONC1=O              497
5  Cn1cc(CNCC2CCN(c3ncc(C(=O)NO)cn3)CC2)c2ccccc21              347

* * *

- System: CU-ACC1
- Test details: area under concentration-response curve (viability) (AUC (a.u.)); higher = less active
- Assay conditions: 48 h
Documented area under concentration-response curve across a set of compounds
Recorded metric: area under concentration-response curve

> print(dat)
                         chemical.structure  reported.result
1  CCNC(=O)C[C@@H]1\N=C(C2=CC=C(Cl)C=C2)/C3=C(C=CC(=C3)OC)[N]4C(=NN=C14)C              423
2  CNc1nc(-c2ccc3c(N)n[nH]c3c2)cc(N2C[C@@H](C(=O)NC3CCCCC3)CC[C@H]2C)n1              458
3  O=C1NC(=O)/C(=C/c2ccc3c(c2)OC(F)(F)O3)S1              512
4  CN1C(=O)N(c2cc(Cl)cc(Cl)c2)C(=O)[C@]12CN(Cc1cc(C(=O)O)cs1)C[C@H]2c1ccc(C#N)cc1              401
5  Cc1cccc(-c2n[nH]cc2-c2ccc(F)c(-c3cnn(CCO)c3)c2)n1              284
6            O=C(O)CCCc1ccc(N(CCCl)CCCl)cc1              300
7  C[C@]\12CCC(=O)\C=C1[C@@H]3C[C@@H]3[C@@H]4[C@@H]2CC[C@@]5(C)[C@H]4[C@@H]6C[C@@H]6[C@@]57CCC(=O)O7              509
8  O=C(Nc1ccccc1-c1cn2c(CN3CCNCC3)csc2n1)c1cnc2ccccc2n1              367
